Quick reference: IC50 of the listed items.
# System: human peripheral blood mononuclear cells
# protocol_details: Assay C: One-Way Mixed Lymphocyte Reaction (Human)
# Type: cell-based
# test_settings: mitomycin-C inactivated Raji stimulator cells, 120 hours, 3H-thymidine incorporation
Structures can show the parent of a compound that is named as a salt.
Give your result in µM as a bare value.

A selection of reference data follows.
compound: CN(CCCC(C#N)(c1ccc(F)cc1)C1CCCC1)Cc1ccccc1 (racemic)
result_units: µM
IC50: 2.3

compound: CC(C)C(C#N)(CCCN(C)Cc1ccccc1)c1ccc(F)cc1 (racemic) [Example 2, monohydrochloride]
result_units: µM
IC50: 7.2

compound: CC(C)C(C#N)(CCCN(C)Cc1ccccc1)c1ccccc1F (racemic) [Example 8, monohydrochloride]
result_units: µM
IC50: 2.9

compound: CC(C)C(C#N)(CCCN(C)CCc1ccccc1)c1ccc(F)cc1 (racemic) [Example 3, monohydrochloride]
result_units: µM
IC50: 4.8

Given the compound CC(C)C(C#N)(CCCCN(C)Cc1ccccc1)c1ccc(F)cc1 (racemic) [Example 5, monohydrochloride] , what is its reported IC50?
2.1
